- tested_target: Axl (Homo sapiens, UniProt P30530)
- Construct: endogenous in cells; host or cells: HeLa cells
- Sequence (P30530 26-894): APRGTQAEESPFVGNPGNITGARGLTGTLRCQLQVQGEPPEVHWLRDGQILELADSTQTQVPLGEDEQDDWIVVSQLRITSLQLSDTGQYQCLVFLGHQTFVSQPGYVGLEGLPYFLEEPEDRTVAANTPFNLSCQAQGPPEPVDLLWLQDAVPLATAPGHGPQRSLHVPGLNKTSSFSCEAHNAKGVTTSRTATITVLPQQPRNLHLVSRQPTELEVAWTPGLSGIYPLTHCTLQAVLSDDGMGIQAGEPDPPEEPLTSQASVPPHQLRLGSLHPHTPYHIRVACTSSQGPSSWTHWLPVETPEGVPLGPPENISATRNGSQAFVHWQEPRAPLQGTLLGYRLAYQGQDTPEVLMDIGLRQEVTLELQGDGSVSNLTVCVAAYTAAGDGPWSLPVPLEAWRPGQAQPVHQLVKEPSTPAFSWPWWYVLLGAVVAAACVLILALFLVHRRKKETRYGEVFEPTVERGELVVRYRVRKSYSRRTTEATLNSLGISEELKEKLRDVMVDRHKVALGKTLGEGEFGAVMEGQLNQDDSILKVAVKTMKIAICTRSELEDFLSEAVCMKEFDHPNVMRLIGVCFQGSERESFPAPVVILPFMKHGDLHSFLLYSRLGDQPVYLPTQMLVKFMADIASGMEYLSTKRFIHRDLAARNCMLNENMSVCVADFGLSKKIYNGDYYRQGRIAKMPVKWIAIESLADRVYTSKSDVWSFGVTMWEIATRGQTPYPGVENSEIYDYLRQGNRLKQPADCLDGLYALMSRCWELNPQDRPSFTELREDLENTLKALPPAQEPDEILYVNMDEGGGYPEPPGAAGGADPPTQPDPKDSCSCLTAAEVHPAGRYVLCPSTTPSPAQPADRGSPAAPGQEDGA
- assay_procedure: Phospho-Akt in-cell Western assay
- Assay type: cell-based
- assay_setup: Hela cells, stimulated by Axl-antibody cross-linking, phospho-Akt chemiluminescence; Table 1, formula (Ia)
pIC50: −log10 of the molar value.
# reported pIC50; entries follow
recorded_endpoint: pIC50

INSERT INTO results (compound, observed_measurement) VALUES
  ('CCOC(=O)CN1CCN(C2CCc3ccc(Nc4nc(N)n(-c5cc6c(nn5)-c5ccccc5CCC6)n4)cc3CC2)CC1 (stereo not drawn)', '> 6.00'),
  ('Nc1nc(Nc2ccc3c(c2)CCC(N2CCN(CC(=O)O)CC2)CC3)nn1-c1cc2c(nn1)-c1ccccc1CCC2 (stereo not drawn)', '5.00 to 6.00'),
  ('Nc1nc(Nc2ccc3c(c2)CC[C@@H](NCC2CCCC2)CC3)nn1-c1cc2c(nn1)-c1ccccc1CCC2', '> 6.00'),
  ('CC=CCN[C@H]1CCc2ccc(Nc3nc(N)n(-c4cc5c(nn4)-c4ccccc4CCC5)n3)cc2CC1', '> 6.00'),
  ('CC(C)CCN(CCC(C)C)[C@H]1CCc2ccc(Nc3nc(N)n(-c4cc5c(nn4)-c4cccnc4CCC5)n3)cc2CC1', '5.00 to 6.00'),
  ('Nc1nc(Nc2ccc3c(c2)CC[C@@H](NCC2CC4C=CC2C4)CC3)nn1-c1cc2c(nn1)-c1ccccc1CCC2 (stereo partly drawn)', '> 6.00'),
  ('Nc1nc(Nc2ccc3c(c2)CC[C@@H](NCc2cccc(Br)c2)CC3)nn1-c1cc2c(nn1)-c1ccccc1CCC2', '5.00 to 6.00'),
  ('CN(CC(=O)O)C1CCc2ccc(Nc3nc(N)n(-c4cc5c(nn4)-c4ccccc4CCC5)n3)cc2CC1 (stereo not drawn)', '5.00 to 6.00'),
  ('CCCN(CCC)[C@H]1CCc2ccc(Nc3nc(N)n(-c4cc5c(nn4)-c4ccccc4CCC5)n3)cc2CC1', '> 6.00'),
  ('CCCN(CCC)[C@H]1CCc2ccc(Nc3nc(N)n(-c4cc5c(nn4)-c4cccnc4CCC5)n3)cc2CC1', '> 6.00'),
  ('Nc1nc(Nc2ccc3c(c2)CC[C@@H](NC2CCCCC2)CC3)nn1-c1cc2c(nn1)-c1ccccc1CCC2', '> 6.00'),
  ('CCN(CC)[C@H]1CCc2ccc(Nc3nc(N)n(-c4cc5c(nn4)-c4cccnc4CCC5)n3)cc2CC1', '> 6.00'),
  ('CC(C)CCN(CCC(C)C)[C@H]1CCc2ccc(Nc3nc(N)n(-c4cc5c(nn4)-c4ccccc4CCC5)n3)cc2CC1', '5.00 to 6.00'),
  ('Nc1nc(Nc2ccc3c(c2)CC[C@@H](NC2CCC2)CC3)nn1-c1cc2c(nn1)-c1ccccc1CCC2', '> 6.00'),
  ('Nc1nc(Nc2ccc3c(c2)CC[C@@H](N(CC2CC4C=CC2C4)CC2CC4C=CC2C4)CC3)nn1-c1cc2c(nn1)-c1ccccc1CCC2 (stereo partly drawn)', '5.00 to 6.00'),
  ('Nc1nc(Nc2ccc3c(c2)CC[C@@H](N(CC2CC2)CC2CC2)CC3)nn1-c1cc2c(nn1)-c1cccnc1CCC2', '> 6.00'),
  ('CC(C)N[C@H]1CCc2ccc(Nc3nc(N)n(-c4cc5c(nn4)-c4ccccc4CCC5)n3)cc2CC1', '> 6.00'),
  ('Nc1nc(Nc2ccc3c(c2)CCC(N2CCC(C(=O)O)CC2)CC3)nn1-c1cc2c(nn1)-c1ccccc1CCC2 (stereo not drawn)', '> 6.00'),
  ('CN(C)[C@H]1CCc2ccc(Nc3nc(N)n(-c4cc5c(nn4)-c4cccnc4CCC5)n3)cc2CC1', '5.00 to 6.00'),
  ('CC(C)(C)OC(=O)N[C@H]1CCc2ccc(Nc3nc(N)n(-c4cc5c(nn4)-c4ccccc4CCC5)n3)cc2CC1', '< 4.70'),
  ('CCC(CC)N[C@H]1CCc2ccc(Nc3nc(N)n(-c4cc5c(nn4)-c4ccccc4CCC5)n3)cc2CC1', '> 6.00');
